- experimental system: Aspartate--tRNA(Asp/Asn) ligase (Mycobacterium tuberculosis (strain ATCC 25618 / H37Rv))
- protocol text: Assay for Asp RNA synthetase-1 from Mycobacterium tuberculosis
- Format: functional
- Set-up: scale not given: in the data most compounds retested in dose-response had high values
- test settings: 30 µM
Entries and their Percent Effect
API: value field is a number in %; no unit string.

>>> df
                                   compound  observed_result
0     COCC(=O)N1CCC2(CC1)CCN(Cc1ccccn1)C2=O             3.22
1            Cc1ncsc1C(=O)N(Cc1cccnc1)C1CC1           -0.522
2  CN(Cc1ccsc1)C(=O)CN1CCCC1Cn1cccn1 (centres undefined)             2.25
3  CCOCC(O)CN1CCN(C(=O)c2cnc3n[nH]c(C)c3c2)CC1 (centres undefined)             1.04
4  COCCOc1ccccc1C(=O)N1CCCCC1c1nccs1 (centres undefined)             4.67

Form: Entry = Cc1cccc(OCCC(=O)N2CCN(S(=O)(=O)N(C)C)CC2)c1C | System = Aspartate--tRNA(Asp/Asn) ligase (Mycobacterium tuberculosis (strain ATCC 25618 / H37Rv)) | Percent Effect = ____
-1.74

Provide value of Percent Effect for this record tested with Aspartate--tRNA(Asp/Asn) ligase (Mycobacterium tuberculosis (strain ATCC 25618 / H37Rv)): Cc1nc(CN2C(=O)CC[C@H]3[C@@H]2CCN3C(=O)c2ccsc2)cs1
-4.11

Provide value of Percent Effect for this record tested with Aspartate--tRNA(Asp/Asn) ligase (Mycobacterium tuberculosis (strain ATCC 25618 / H37Rv)): NC(=O)C1CCN(C(=O)c2ccn(-c3ccc(F)cc3)n2)C1 (centres undefined)
9.24

Request - read-out Percent Effect | tested on Aspartate--tRNA(Asp/Asn) ligase (Mycobacterium tuberculosis (strain ATCC 25618 / H37Rv)) | compound CSC(C)(C)CNC(=O)NCCC1CCN(C)CC1
-1.57

Percent Effect of CCN(CCNC(=O)c1ccccc1Br)C1CC1 on Aspartate--tRNA(Asp/Asn) ligase (Mycobacterium tuberculosis (strain ATCC 25618 / H37Rv))?
-1.24

Aspartate--tRNA(Asp/Asn) ligase (Mycobacterium tuberculosis (strain ATCC 25618 / H37Rv)) / Percent Effect / CC(NC(=O)CCOc1ccccc1Cl)c1nnc2n1CCC2 (centres undefined) : value?
-1

I'm curious: which Percent Effect was measured for N#Cc1ccc(C(=O)N2CC[C@H]3[C@@H]2CCC(=O)N3c2ccccc2)cc1 tested on Aspartate--tRNA(Asp/Asn) ligase (Mycobacterium tuberculosis (strain ATCC 25618 / H37Rv))?
0.485
